Target: pooled human IgG (human IgG1, 2, 3 and 4)
Quantity name: Enzyme Activity Endpoint Assay: Fab′2 (ng/µL)
Answers are plain numbers, in ng/µL.

| Protein | Result |
| --- | --- |
| PRT-555 (protein) MANQEIRYSEETPKTITSVWTKGVTPPTDFIKNEDVLHAPYVANQGWYDITKTFNGKDDLLCGAATAGNMLHWWFDQNKEEIERYLKKHPEKQKINFNGEQMFDVKEAIDTKDSQTDSKLFEYFKDKAFPYLSTKHLGVFPDHVIDMFINGYRLSLTNHGPTPVKRGTKDPRGGIFDAVFTRGDQSKLLTSRHDFKEKTLNEISDLIKQELQEGKALGLSHTYANVRINHVINLWGADFDSEGNLEAIYVTDSDSNASIGMKKYYVGVNSAGKVAISAKEIEDDNIGAQVLGLFTLSTGKDIWEQTNLEHHHHHH | 670 |
| PRT-467 (protein) MITSVWTKGVTPPTDFIKGEDVFHAPYKAGQGWYDITKAFDGGDDLLCGAATAGNMLHWWFDQNKDQIERYLKEHPEKQKINFNGEQMFDVKEAIDTKDSQTNSELFNYFKEKAFPYLSTKHLGVFPDHVLDMFINGYRLSLTNHGPTPVKRQEKDPRGGIFDAVFGRGDQTKLLTSRHDLKNKTLNEISQLIKQELTEGKALGLSHTYANVRINHVINLWGADFDAEGNLEAIYVTDSDSNASIGMKKYFVGVNSAGKVAISAKEIKEDNIGAQVLGLFTLSTGQKIWNKTNLEHHHHHH | 685 |
| PRT-600 (protein) MANQEIRYSEETPSTITSVWTKGVTPPTDFIQNEDVLHAPYIANQGWYDITKTFNGKDDLLCGAATAGNMLHWWFDQNKEQIENYLKKHPEKQKINFNGEQMFDVKEAIDTKDSQTDSALFEYFKDKAFPYLSTKHLGVFPDHVIDMFINGYRLSLTNHGPTPVKRGTKDPRGGIFDAVFTRGDQSKLLTSRHDFKEKTLNEISDLIKQELTEGKALGLSHTYANVRINHVINLWGADFNAEGNLEAIYVTDSDSNASIGMKKYYVGVNSAGKVAISAKEIEGDNIGAQVLGLFTLSTGQDSWNQTNLEHHHHHH | 992 |

Exercise: // Enzyme Activity Endpoint Assay: Fab′2 lookup, key: PRT-272 (protein) MVTSVWTKGVTPPTDFIYGEDVLHAPYKAGQGWYDITKLFNGKDDLLCGAATAGNMLHWWFDQNKEQIENYLKKHPEKQKINFNGEQMFDVKEAIDTKDSQLDSKLFEYFLEKAFPYLSTKHLGVFPDHVIDMFINGYRLSLTNHGPTPVKRGSKDPRGGIFDAVFTRGDQSKLLTNRHDLKNKTLKEISDLIKQELTEGKALGISHTYANVRINHVINLWGADFDAEGNLEAIAVTDSDSNASIGMKKYFVGVNSSGKVAISAKEIEEDNIGAQVLGLFTLSTGQDIWNQTN
Solution: 721
